Ref: ChEMBL document CHEMBL1133655

Assay: Concentration required for 50% toxicity in metastatic lung carcinoma (MV522) cells.
Details: Homo sapiens
Peptide text beside a SMILES is read from it. * marks the point of attachment. X1 = CC1=C(C*)C2=C(C)C3(CC3)[C@@](C)(O)C(=O)C2=C1
Provide the reported IC50 of each item.
Answer in µM, number only, no unit symbol.

-- ask What IC50 value was documented for this compound, CC(=O)N[C@@H](CSCC1=C(C)C=C2C(=O)[C@](C)(O)C3(CC3)C(C)=C21)C(=O)N[C@@H](CC(C)C)C(=O)NCC(=O)N[C@@H](Cc1ccccc1)C(=O)O (Ac-C(X1)LGF-OH) ?
-- reply 28.2

-- ask Same for CC(=O)N[C@@H](CSCC1=C(C)C=C2C(=O)[C@](C)(O)C3(CC3)C(C)=C21)C(=O)N[C@@H](CC(C)C)C(=O)N[C@@H](CC(C)C)C(=O)N[C@@H](CC(C)C)C(=O)O (Ac-C(X1)LLL-OH)
-- reply 24.7

-- ask Same for CC1=C(CSCC(N)C(=O)O)C2=C(C)C3(CC3)[C@@](C)(O)C(=O)C2=C1 (stereo partly specified)
-- reply 29.2

-- ask Same for CC(=O)NC(CSCC1=C(C)C=C2C(=O)[C@](C)(O)C3(CC3)C(C)=C21)C(=O)N[C@@H](C)c1ccccc1 (stereo partly specified)
-- reply 2.5

-- ask Same for CC1=C(CO)C2=C(C)C3(CC3)[C@@](C)(O)C(=O)C2=C1
-- reply 0.004

-- ask Same for CC1=C2C(=C[C@@](C)(CO)C2O)C(=O)[C@](C)(O)C12CC2 (stereo partly specified)
-- reply 0.073

-- ask Same for CC(=O)N[C@@H](CSCC1=C(C)C=C2C(=O)[C@](C)(O)C3(CC3)C(C)=C21)C(=O)N[C@@H](Cc1ccccc1)C(=O)NCC(=O)N[C@@H](CC(C)C)C(=O)O (Ac-C(X1)FGL-OH)
-- reply 37.2

-- ask Same for CC1=CC2=C(C)C3(CC3)[C@@](C)(O)C(=O)C2=C1
-- reply 0.35

-- ask Same for CC1=C(CSCC(NC(=O)CCC(N)C(=O)O)C(=O)NCC(=O)O)C2=C(C)C3(CC3)[C@@](C)(O)C(=O)C2=C1 (stereo partly specified)
-- reply 15.5
